# Tested on: trypsin from bovine pancreas (Bos taurus)
# Construct: purchased Sigma-Aldrich T8003; host or cells: bovine pancreas (tissue-derived preparation)
# Sequence (P00760 24-246): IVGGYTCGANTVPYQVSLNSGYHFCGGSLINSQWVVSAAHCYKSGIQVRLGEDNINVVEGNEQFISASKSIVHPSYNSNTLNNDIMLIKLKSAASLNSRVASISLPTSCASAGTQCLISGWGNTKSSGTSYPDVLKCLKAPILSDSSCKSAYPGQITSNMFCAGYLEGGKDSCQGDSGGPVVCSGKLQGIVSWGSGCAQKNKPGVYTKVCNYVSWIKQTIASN
# Measurement notes: In vitro trypsin-mediated cleavage of hydrocodone prodrugs
# Assay type: biochemical
# Protocol: The reactions were conducted at 37° C. for 24 h. Table 9 indicates the results of exposure of the tested prodrugs to trypsin.
Assay endpoint: HC formation rate (μmol/h/BAEE U)
A number alone suffices; assume μmol/h/BAEE U.

Q: State the recorded HC formation rate for this entry: COc1ccc2c3c1O[C@H]1C(OC(=O)N4CCCC[C@@H]4CNC(=O)[C@H](CCCNC(=N)N)NC(=O)CC(=O)O)=CC[C@H]4[C@@H](C2)N(C)CC[C@]314
Ans: 0.00

Q: Entry COc1ccc2c3c1O[C@H]1C(OC(=O)N4CCCC[C@@H]4CNC(=O)[C@H](CCCNC(=N)N)NC(C)=O)=CC[C@H]4[C@@H](C2)N(C)CC[C@]314 please
Ans: 0.001

Q: Entry COc1ccc2c3c1O[C@H]1C(OC(=O)N4CCCC[C@@H]4CNC(=O)[C@H](CCCNC(=N)N)NC(=O)[C@H](C)NC(C)=O)=CC[C@H]4[C@@H](C2)N(C)CC[C@]314 please
Ans: 0.004

Q: Entry COc1ccc2c3c1O[C@H]1C(OC(=O)N4CCCC[C@@H]4CNC(=O)[C@H](CCCNC(=N)N)NC(=O)CNC(C)=O)=CC[C@H]4[C@@H](C2)N(C)CC[C@]314 please
Ans: 0.004

* * *

# Tested on: trypsin from bovine pancreas (Bos taurus, UniProt P00760)
# Construct: purchased Sigma-Aldrich T8003; host or cells: bovine pancreas (tissue-derived preparation)
# Measurement notes: In vitro trypsin-mediated cleavage of oxycodone prodrugs
# Assay type: biochemical
# Settings: 0.761 mM prodrug, Tris pH 8, 37° C.
Param label: returns t when OC formation rate < 1 μmol/h/BAEE U, returns f otherwise, including exact equality.

Q: Is it true that OC formation rate reported for COc1ccc2c3c1O[C@H]1C(OC(=O)N4CCCCC4CNC(=O)[C@H](CCCNC(=N)N)NC(=O)[C@H](C)NC(=O)CC(=O)O)=CC[C@@]4(O)[C@@H](C2)N(C)CC[C@]314 (stereo partly shown) [Compound KC-15] is less than 1 μmol/h/BAEE U?
Ans: f

Q: Entry COc1ccc2c3c1O[C@H]1C(OC(=O)N4CCCCC4CNC(=O)[C@H](CCCNC(=N)N)NC(=O)CNC(C)=O)=CC[C@@]4(O)[C@@H](C2)N(C)CC[C@]314 (stereo partly shown) [Compound KC-14] please
Ans: f

Q: Entry COc1ccc2c3c1O[C@H]1C(OC(=O)N4CCCCC4CNC(=O)[C@H](CCCNC(=N)N)NC(=O)[C@H](C)NC(C)=O)=CC[C@@]4(O)[C@@H](C2)N(C)CC[C@]314 (stereo partly shown) [Compound KC-13] please
Ans: f

Q: Entry COc1ccc2c3c1O[C@H]1C(OC(=O)N4CCCCC4CNC(=O)[C@H](CCCNC(=N)N)NC(=O)CNC(=O)CC(=O)O)=CC[C@@]4(O)[C@@H](C2)N(C)CC[C@]314 (stereo partly shown) [Compound KC-16] please
Ans: f

Q: Entry COc1ccc2c3c1O[C@H]1C(OC(=O)N4CCCC4CNC(=O)[C@H](CCCNC(=N)N)NC(=O)CC(=O)O)=CC[C@@]4(O)[C@@H](C2)N(C)CC[C@]314 (stereo partly shown) [Compound KC-10] please
Ans: t

Q: Entry COc1ccc2c3c1O[C@H]1C(OC(=O)N4CCCCC4CNC(=O)[C@H](CCCNC(=N)N)NC(=O)CC(=O)O)=CC[C@@]4(O)[C@@H](C2)N(C)CC[C@]314 (stereo partly shown) [Compound KC-12] please
Ans: t

Q: Entry COc1ccc2c3c1O[C@H]1C(OC(=O)N4CCCC[C@@H]4CNC(=O)[C@H](CCCNC(=N)N)NC(=O)CNC(=O)CC(=O)O)=CC[C@@]4(O)[C@@H](C2)N(C)CC[C@]314 [Compound KC-17] please
Ans: f
